Assay: Solubility of betulin in single and mixed polar organic solvents
Format: physicochemical
Conditions: organic solvent or mixture; chloroform:ethanol 82:18 v/v, density = 1.37 g/mL, at 60.5°C; read-out: solubility of betulin in the mixed solvent of chloroform and ethanol
propertyName: solubility (mg/mL)
Use mg/mL as the unit, but write only the number.

Need solubility, item `C=C(C)[C@@H]1CC[C@]2(CO)CC[C@]3(C)[C@H](CC[C@@H]4[C@@]5(C)CC[C@H](O)C(C)(C)[C@@H]5CC[C@]43C)[C@@H]12`
163

---

Assay: Solubility of betulin in single and mixed polar organic solvents
Assay type: physicochemical
Conditions: organic solvent or mixture; chloroform:ethanol 18:82 v/v, density = 0.91 g/mL, at 60.5°C; read-out: solubility of betulin in the mixed solvent of chloroform and ethanol
propertyName: solubility (mg/mL)
Use mg/mL as the unit, but write only the number.

Need solubility, item `C=C(C)[C@@H]1CC[C@]2(CO)CC[C@]3(C)[C@H](CC[C@@H]4[C@@]5(C)CC[C@H](O)C(C)(C)[C@@H]5CC[C@]43C)[C@@H]12`
38.6

---

Assay: Solubility of betulin in single and mixed polar organic solvents
Type: physicochemical
Conditions: organic solvent or mixture; ethyl acetate, at 77.1°C; read-out: solubility of betulin in ethyl acetate
propertyName: solubility

Need solubility, item C=C(C)[C@@H]1CC[C@]2(CO)CC[C@]3(C)[C@H](CC[C@@H]4[C@@]5(C)CC[C@H](O)C(C)(C)[C@@H]5CC[C@]43C)[C@@H]12 [betulin]
≤ 23 mg/mL

---

Assay: Solubility of betulin in single and mixed polar organic solvents
Assay type: physicochemical
Settings: organic solvent or mixture; chloroform:ethanol 57:43 v/v, density = 1.19 g/mL, at 60.5°C; read-out: solubility of betulin in the mixed solvent of chloroform and ethanol
Description: This recrystallization step is an intermediate step for obtaining ultrapure betulin of 99.5% or more and highly-pure betulinic acid of 95% or more. The outer bark and inner bark of a birch tree generally includes betulin, betulinic acid, lupeol (CAS 545-47-1) and polar pigment components. […]
propertyName: solubility (mg/mL)
Use mg/mL as the unit, but write only the number.

Need solubility, item `C=C(C)[C@@H]1CC[C@]2(CO)CC[C@]3(C)[C@H](CC[C@@H]4[C@@]5(C)CC[C@H](O)C(C)(C)[C@@H]5CC[C@]43C)[C@@H]12`
140

---

Assay: Solubility of betulin in single and mixed polar organic solvents
Format: physicochemical
Conditions: organic solvent or mixture; ethanol, at 78°C; read-out: solubility of betulin in ethanol
propertyName: solubility

Need solubility, item C=C(C)[C@@H]1CC[C@]2(CO)CC[C@]3(C)[C@H](CC[C@@H]4[C@@]5(C)CC[C@H](O)C(C)(C)[C@@H]5CC[C@]43C)[C@@H]12 [betulin]
≤ 18.5 mg/mL
